Please provide measured pEC50 for the entries that follow.
- Test system: HCT116 (human colon cancer cell line)
- method.summary: 72 hr ATP luminescence proliferation inhibition, HCT116
- Type: cell-based
- conditions: Homo sapiens, HCT-116, read-out: Proliferation Inhibition of Cancer Cells EC50, HCT116
Formally, pEC50 is defined as -log10 of the concentration c, with c in mol/L.

pEC50 for O=C(c1cc2c3c(cc(O)c2[nH]1)N(C(=O)c1cc2cc(-c4ccccc4)ccc2[nH]1)C[C@H]3CCl)N1CCOCC1 ?
9.40

pEC50 for CC(C)Oc1ccc2[nH]c(C(=O)N3C[C@@H](CCl)c4c3cc(O)c3[nH]c(C(=O)N5CCOCC5)cc43)cc2c1 ?
9.74

pEC50 for Nc1ccc2[nH]c(C(=O)N3C[C@@H](CCl)c4c3cc(O)c3[nH]c(C(=O)N5CCOCC5)cc43)cc2c1 ?
8.49

pEC50 for O=C(Nc1ccc2[nH]c(C(=O)N3C[C@@H](CCl)c4c3cc(O)c3[nH]c(C(=O)N5CCOCC5)cc43)cc2c1)c1ccc(O)cc1 ?
9.03

pEC50 for O=C(c1cc2c3c(cc(O)c2[nH]1)N(C(=O)c1cc2cc(OCCC4CC4)ccc2[nH]1)C[C@H]3CCl)N1CCOCC1 ?
9.17

pEC50 for Nc1ccc2[nH]c(C(=O)Nc3ccc4[nH]c(C(=O)N5C[C@@H](CCl)c6c5cc(O)c5[nH]c(C(=O)N7CCOCC7)cc65)cc4c3)cc2c1 ?
9.37

pEC50 for CC(C)COc1ccc2[nH]c(C(=O)N3C[C@@H](CCl)c4c3cc(O)c3[nH]c(C(=O)N5CCOCC5)cc43)cc2c1 ?
9.77

pEC50 for CCCOc1ccc2[nH]c(C(=O)N3C[C@@H](CCl)c4c3cc(O)c3[nH]c(C(=O)N5CCOCC5)cc43)cc2c1 ?
10.47

pEC50 for NCCOc1ccc2[nH]c(C(=O)N3C[C@@H](CCl)c4c3cc(O)c3[nH]c(C(=O)N5CCOCC5)cc43)cc2c1 ?
7.60

pEC50 for COc1ccc2[nH]c(C(=O)N3C[C@@H](CCl)c4c3cc(O)c3[nH]c(C(=O)N5CCOCC5)cc43)cc2c1 ?
9.24

pEC50 for CCOc1ccc2[nH]c(C(=O)N3C[C@@H](CCl)c4c3cc(O)c3[nH]c(C(=O)N5CCOCC5)cc43)cc2c1 ?
10.35
